ASSAYED SYSTEM: GST-RIPK1 (recombinant GST-RIPK1 kinase domain (residues 1-327)) (Homo sapiens, UniProt Q13546)
Construct: recombinant GST-RIPK1 kinase domain (residues 1-327) enzyme produced from baculovirus-transfected Sf21 cells
ASSAY PROTOCOL: RIPK1-ADP-Glo Enzymatic Assay
STATED CONDITIONS: ten-point titration, top compound concentration of 100000 nM; 25 nM GST-RIPK1, 300 μM ATP, 3 μM dephosphorylated-MBP; 30 min pre-incubation, 150 min reaction
We begin with a simple list: items and their reported EC50.

COMPOUND | UNIT TEXT | EC50
O=C1N2[C@@H](CC[C@H]2c2ccccc2)OC12CC(Oc1ccncc1F)C2 (stereo partly drawn) [Example 8.7] | nM | 74
CC(OC1CC2(C1)O[C@@H]1CC[C@@H](c3cc(F)cc(F)c3)N1C2=O)c1ccccc1 (single isomer, unassigned) [Example 15.1] | nM | 284
CCC(C)Oc1cccc(COC2CC3(C2)O[C@@H]2CC[C@@H](c4cnccn4)N2C3=O)n1 (stereo partly drawn) [Example 18.66] | nM | 141
O=C1N2[C@@H](CC[C@H]2c2ccccc2)OC12CC(Oc1cccc3sncc13)C2 (stereo partly drawn) [Example 8.12] | nM | 20
O=C1N2[C@@H](CC[C@H]2c2cc(F)cc(F)c2)O[C@]12C[C@H](Oc1ncnc3occc13)C2 [Example 9.31] | nM | 9
CC(OC1CC2(C1)O[C@@H]1CC[C@@H](c3cc(F)cc(F)c3)N1C2=O)c1ncccc1F (single isomer, unassigned) [Example 12.4] | nM | 329
O=C1N2[C@@H](CC[C@H]2c2ccccc2)O[C@]12C[C@H](Oc1ncnn3cccc13)C2 [Example 9.24] | nM | 11
Cn1ccc([C@@H]2CC[C@H]3OC4(CC(Oc5cccc(-c6ccnn6C)c5)C4)C(=O)N32)n1 (stereo partly drawn) [Example 19.10] | nM | 30
O=C1N2[C@@H](CC[C@H]2c2ccccc2)OC12CCC(OCc1ccccc1)CC2 (single isomer, unassigned) [Example 1.2] | nM | 138

###

ASSAYED SYSTEM: GST-RIPK1 (recombinant GST-RIPK1 kinase domain (residues 1-327)) (Homo sapiens, UniProt Q13546)
Construct: recombinant GST-RIPK1 kinase domain (residues 1-327) enzyme produced from baculovirus-transfected Sf21 cells
Sequence (Q13546 1-327): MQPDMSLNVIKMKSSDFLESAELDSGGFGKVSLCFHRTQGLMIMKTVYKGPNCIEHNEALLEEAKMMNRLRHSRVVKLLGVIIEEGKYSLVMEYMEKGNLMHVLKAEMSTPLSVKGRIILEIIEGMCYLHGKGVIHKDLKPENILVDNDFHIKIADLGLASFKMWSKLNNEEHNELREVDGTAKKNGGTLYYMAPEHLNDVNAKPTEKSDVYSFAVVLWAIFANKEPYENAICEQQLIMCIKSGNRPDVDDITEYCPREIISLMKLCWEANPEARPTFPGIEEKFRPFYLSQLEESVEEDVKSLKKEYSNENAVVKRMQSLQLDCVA
ASSAY PROTOCOL: RIPK1-ADP-Glo Enzymatic Assay
STATED CONDITIONS: ten-point titration, top compound concentration of 100000 nM; 25 nM GST-RIPK1, 300 μM ATP, 3 μM dephosphorylated-MBP; 30 min pre-incubation, 150 min reaction
We begin with a simple list: items and their reported log10 EC50.
MEASUREMENT KIND: log10 EC50 (log10 of the value in nM)

MOLECULE | NUMERIC READOUT
O=C1N2C(CC[C@H]2c2cnccn2)OC12CC(OCc1csc3ncccc13)C2 (stereo partly shown) [Example 18.18] | 1.26
COc1cc(COC2CC3(C2)OC2CC[C@@H](c4cnccn4)N2C3=O)cc2nccn12 (stereo partly shown) [Example 18.34] | 2.36
O=C1N2[C@@H](CC[C@H]2c2cnccn2)OC12CC(OCc1cccc(F)c1)C2 (single isomer, unassigned) [Example 22.8] | 1.54
COc1ccc(COC2CC3(C2)OC2CC[C@@H](c4cnccn4)N2C3=O)cc1CC#N (stereo partly shown) [Example 18.86] | 1.97
O=C1N2C(CC[C@H]2c2cnccn2)OC12CC(OCc1cnn(C3CC3)c1)C2 (stereo partly shown) | 2.99
O=C1N2[C@@H](CC[C@H]2c2cc(F)cc(F)c2)O[C@]12C[C@H](Oc1cc(-n3cc(C(F)F)cn3)ncn1)C2 | 1.26
N#Cc1ccc(OC2CCC2)cc1COC1CC2(C1)OC1CC[C@@H](c3cnccn3)N1C2=O (stereo partly shown) [Example 18.40] | 2.08
O=C1N2C(CC[C@H]2c2cnccn2)OC12CC(OCc1ccc3cnccc3c1)C2 (stereo partly shown) [Example 18.85] | 1.90
Cc1cc2c(O[C@H]3C[C@@]4(C3)O[C@@H]3CC[C@@H](c5cc(F)cc(F)c5)N3C4=O)ncnc2o1 | 0.90
O=C1N2C(CC[C@H]2c2cnccn2)OC12CC(OCc1cc3cncnc3s1)C2 (stereo partly shown) [Example 18.107] | 1.53
COc1cncc(OC2CC3(C2)O[C@@H]2CC[C@@H](c4ccccc4)N2C3=O)c1 (stereo partly shown) | 1.81
O=C1N2C(CC[C@H]2c2cnccn2)OC12CC(OCc1ccc(OC3CCOCC3)nc1)C2 (stereo partly shown) [Example 18.106] | 2.76
N#Cc1ccnc(O[C@H]2C[C@@]3(C2)O[C@@H]2CC[C@@H](c4ccccc4)N2C3=O)n1 | 1.81
O=C1N2[C@H](O[C@]13C[C@@H](OCc1ccccc1)C3)[C@@H](O)C[C@H]2c1cnccn1 | 2.41
O=C1N2[C@@H](CC[C@H]2c2cnccn2)OC12CC(OCc1cccs1)C2 (stereo partly shown) | 2.16
O=C1N2C(CC[C@H]2c2cnccn2)OC12CC(OCc1cc(-n3ccnc3)ccn1)C2 (stereo partly shown) [Example 18.39] | 2.48
C[C@@H](OC1CC2(C1)O[C@@H]1CC[C@@H](c3cc(F)cc(F)c3)N1C2=O)c1ccc(F)cn1 (single isomer, unassigned) | 2.19
O=C1N2[C@@H](CC[C@H]2c2ccccc2)OC12CC(Oc1cccc(-c3nnco3)c1)C2 (stereo partly shown) | 1.76
O=C1N2C(CC[C@H]2c2cnccn2)OC12CC(OCc1cnn3cccnc13)C2 (stereo partly shown) | 1.65

###

ASSAYED SYSTEM: GST-RIPK1 (recombinant GST-RIPK1 kinase domain (residues 1-327)) (Homo sapiens)
Construct: recombinant GST-RIPK1 kinase domain (residues 1-327) enzyme produced from baculovirus-transfected Sf21 cells; host or cells: baculovirus-transfected Sf21 insect cells
ASSAY PROTOCOL: RIPK1-ADP-Glo Enzymatic Assay
Type: biochemical
STATED CONDITIONS: ten-point titration, top compound concentration of 100000 nM; 25 nM GST-RIPK1, 300 μM ATP, 3 μM dephosphorylated-MBP; 30 min pre-incubation, 150 min reaction
We begin with a simple list: items and their reported EC50.

COMPOUND | ASSAYED SYSTEM | EC50 / nM
O=C1N2C(CC[C@H]2c2cnccn2)OC12CC(OCc1ccc3c(c1)CCO3)C2 (stereo partly shown) [Example 18.108] | GST-RIPK1 (recombinant GST-RIPK1 kinase domain (residues 1-327)) (Homo sapiens) | 94
N#Cc1cccc(OC2CC3(C2)O[C@@H]2CC[C@@H](c4cnccn4)N2C3=O)c1 (stereo partly shown) [Example 19.15] | GST-RIPK1 (recombinant GST-RIPK1 kinase domain (residues 1-327)) (Homo sapiens) | 18
COc1ccc2cc(COC3CC4(C3)OC3CC[C@@H](c5cnccn5)N3C4=O)ncc2n1 (stereo partly shown) [Example 18.32] | GST-RIPK1 (recombinant GST-RIPK1 kinase domain (residues 1-327)) (Homo sapiens) | 143
COc1ccc2cc(COC3CC4(C3)OC3CC[C@@H](c5cnccn5)N3C4=O)ncc2n1 (stereo partly shown) [Example 18.81] | GST-RIPK1 (recombinant GST-RIPK1 kinase domain (residues 1-327)) (Homo sapiens) | 756

###

ASSAYED SYSTEM: GST-RIPK1 (recombinant GST-RIPK1 kinase domain (residues 1-327)) (Homo sapiens, UniProt Q13546)
Construct: recombinant GST-RIPK1 kinase domain (residues 1-327) enzyme produced from baculovirus-transfected Sf21 cells
ASSAY PROTOCOL: RIPK1-ADP-Glo Enzymatic Assay
STATED CONDITIONS: ten-point titration, top compound concentration of 100000 nM; 25 nM GST-RIPK1, 300 μM ATP, 3 μM dephosphorylated-MBP; 30 min pre-incubation, 150 min reaction
MEASUREMENT KIND: EC50 (nM)

COMPOUND | MEASUREMENT KIND | NUMERIC READOUT
N#Cc1ncccc1O[C@H]1C[C@@]2(C1)O[C@@H]1CC[C@@H](c3ccccc3)N1C2=O | EC50 | 139
Cn1nccc1-c1cccc(OC2CC3(C2)O[C@@H]2CC[C@@H](c4cnccn4)N2C3=O)c1 (stereo partly shown) [Example 19.13] | EC50 | 15
N#Cc1ccoc1COC1CC2(C1)OC1CC[C@@H](c3cnccn3)N1C2=O (stereo partly shown) [Example 18.104] | EC50 | 355
Cc1ccc(OC2CC3(C2)O[C@@H]2CC[C@@H](c4ccn(C)n4)N2C3=O)cn1 (stereo partly shown) [Example 19.7] | EC50 | 531
